Test: ATG_EGR_CIS: Attagene CIS-FACTORIAL HepG2 Assay for human Early Growth Response 1 (EGR1) (AID 2282938)
Conditions: HepG2 Attagene CIS-FACTORIAL EGR reporter mRNA; actives raise or lower the signal
Active and inactive are the calls of the source. Rule for the calls: active = hit-call score of the fitted dose curve at least 0.9, where 1 is the maximum; inactive = score below 0.9.
Please reply with one of these outcomes: T for active, F for inactive

Problem: Query: recorded result category for CC(C)CCCC(C)(C)O in this test
Result: F

Problem: Query: recorded result category for NC(=O)c1cccnc1 in this test
Result: F

Problem: Query: recorded result category for CC(C)C(=O)OCC=Cc1ccccc1 in this test
Result: F

Problem: Query: recorded result category for CC(=O)c1ccc2ccccc2c1 in this test
Result: F

Problem: Query: recorded result category for CCOc1ccc(NC(C)=O)cc1 in this test
Result: F

Problem: Query: recorded result category for CN(C)C in this test
Result: F

Problem: Query: recorded result category for C=CCOC(=O)/C=C\C(=O)OCC=C in this test
Result: T

Problem: Query: recorded result category for c1ccc2scnc2c1 in this test
Result: F

Problem: Query: recorded result category for CCCC1CCC(=O)CC1 in this test
Result: F

Problem: Query: recorded result category for CCCCCCCCCCCCCC(=O)OCC in this test
Result: F

Problem: Query: recorded result category for CC1(C)CC(N)CC(C)(CN)C1 (centres undefined) in this test
Result: F

Problem: Query: recorded result category for O=C(C=Cc1ccccc1)OCCCc1ccccc1 in this test
Result: F

Problem: Query: recorded result category for CC(C)OB(OC(C)C)OC(C)C in this test
Result: F

Problem: Query: recorded result category for O=c1cc[nH]cc1 in this test
Result: F

Problem: Query: recorded result category for CC(C)(CO)CO in this test
Result: F

Problem: Query: recorded result category for CC(O)COCC(C)O (centres undefined) in this test
Result: F

Problem: Query: recorded result category for CCOC(=O)CC1(C)OCC(C)O1 (centres undefined) in this test
Result: F

Problem: Query: recorded result category for CCCCOCC(C)OCC(C)O (centres undefined) in this test
Result: F

Problem: Query: recorded result category for CC(CO)c1ccccc1 (centres undefined) in this test
Result: F

Problem: Query: recorded result category for OCC=Cc1ccccc1 in this test
Result: F

Problem: Query: recorded result category for CCCCOCCOC(=O)c1ccccc1C(=O)OCCOCCCC in this test
Result: F

Problem: Query: recorded result category for O=C(O)c1cccc(Cl)n1 in this test
Result: F

Problem: Query: recorded result category for CCCCCCCCCCCCOCCOS(=O)(=O)O in this test
Result: F

Problem: Query: recorded result category for CC(C)COC(=O)c1ccccc1O in this test
Result: F

Problem: Query: recorded result category for NC(N)=S in this test
Result: F

Problem: Query: recorded result category for CC(O)CNCC(C)O (centres undefined) in this test
Result: F

Problem: Query: recorded result category for O=C(O)c1cc2ccccc2cc1O in this test
Result: F

Problem: Query: recorded result category for COc1cc(OC)c2ccc(=O)oc2c1 in this test
Result: F

Problem: Query: recorded result category for CC(C)Cc1ccc(C(C)C(=O)O)cc1 (centres undefined) in this test
Result: F

Problem: Query: recorded result category for COc1ccc(OC)cc1 in this test
Result: F

Problem: Query: recorded result category for C[N+](C)(C)CCO in this test
Result: F

Problem: Query: recorded result category for C1COCO1 in this test
Result: F

Problem: Query: recorded result category for CC1=CCC(C(C)(C)O)CC1 (centres undefined) in this test
Result: F

Problem: Query: recorded result category for CC(C)(C)c1cc(CCC(=O)OCCSCCOC(=O)CCc2cc(C(C)(C)C)c(O)c(C(C)(C)C)c2)cc(C(C)(C)C)c1O in this test
Result: F
